- target_system: T1, human MSLN-R3-his protein (human, UniProt Q13421 487-598)
- T1 construct: Region 3 of human mesothelin, made in HEK293E cells, His-tagged; also called human MSLN-R3 protein; hMSLN-R3-his; not shown: His tag
- T1 sequence (Q13421 495-606): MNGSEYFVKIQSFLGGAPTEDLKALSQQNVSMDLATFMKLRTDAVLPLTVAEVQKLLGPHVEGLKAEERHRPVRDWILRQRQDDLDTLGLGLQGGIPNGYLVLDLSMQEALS
- experimental_details: ELISA on coated MSLN-R3; no antibody (blank)
assay_endpoint: OD450
Dear colleague, please send the value followed by its unit.

Query: OD450; subject: S009-F8-15.19 (antibody, human IgG1, kappa, V domains shown) VH: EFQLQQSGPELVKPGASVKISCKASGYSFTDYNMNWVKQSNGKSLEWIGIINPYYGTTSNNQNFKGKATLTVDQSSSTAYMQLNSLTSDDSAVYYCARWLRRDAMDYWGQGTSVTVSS VL: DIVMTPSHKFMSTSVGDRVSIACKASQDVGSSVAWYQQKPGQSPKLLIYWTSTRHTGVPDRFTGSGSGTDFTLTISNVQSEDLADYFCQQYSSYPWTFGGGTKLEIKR
0.05 OD450

So what's the measured OD450 for this one? S009-F8-32.3 (antibody, human IgG1, kappa, V domains shown) VH: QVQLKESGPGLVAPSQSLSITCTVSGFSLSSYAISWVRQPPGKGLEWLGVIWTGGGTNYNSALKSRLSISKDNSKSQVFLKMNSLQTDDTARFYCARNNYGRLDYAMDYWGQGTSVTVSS VL: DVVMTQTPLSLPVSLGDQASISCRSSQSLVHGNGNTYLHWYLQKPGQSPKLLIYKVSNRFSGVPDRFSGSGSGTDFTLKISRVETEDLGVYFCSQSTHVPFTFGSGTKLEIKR
0.04 OD450

Which OD450 reading was recorded for the binder S009-F8-33.12 (antibody, human IgG1, kappa, V domains shown) VH: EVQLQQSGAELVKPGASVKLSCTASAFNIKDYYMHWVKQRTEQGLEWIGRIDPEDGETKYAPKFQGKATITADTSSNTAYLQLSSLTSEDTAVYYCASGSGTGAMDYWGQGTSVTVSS VL: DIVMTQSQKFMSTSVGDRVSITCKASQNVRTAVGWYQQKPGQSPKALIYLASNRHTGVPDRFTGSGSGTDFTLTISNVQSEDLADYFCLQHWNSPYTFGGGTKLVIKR ?
0.03 OD450

Look up OD450 for this binder: S009-F8-12.13 (antibody, human IgG1, kappa, V domains shown) VH: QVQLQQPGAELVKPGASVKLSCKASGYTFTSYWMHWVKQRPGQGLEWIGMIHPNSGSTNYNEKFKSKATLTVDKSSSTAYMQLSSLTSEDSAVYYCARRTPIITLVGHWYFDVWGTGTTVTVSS VL: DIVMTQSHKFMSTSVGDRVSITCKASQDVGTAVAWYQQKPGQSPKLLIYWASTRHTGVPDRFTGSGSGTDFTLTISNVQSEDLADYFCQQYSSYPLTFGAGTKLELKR
0.05 OD450

Attribution: patent US20250250357A1
